# Test target: Scavenger receptor class B member 1 (Mus musculus) (UniProt Q61009)
# Sequence (Q61009 whole entry, looked up): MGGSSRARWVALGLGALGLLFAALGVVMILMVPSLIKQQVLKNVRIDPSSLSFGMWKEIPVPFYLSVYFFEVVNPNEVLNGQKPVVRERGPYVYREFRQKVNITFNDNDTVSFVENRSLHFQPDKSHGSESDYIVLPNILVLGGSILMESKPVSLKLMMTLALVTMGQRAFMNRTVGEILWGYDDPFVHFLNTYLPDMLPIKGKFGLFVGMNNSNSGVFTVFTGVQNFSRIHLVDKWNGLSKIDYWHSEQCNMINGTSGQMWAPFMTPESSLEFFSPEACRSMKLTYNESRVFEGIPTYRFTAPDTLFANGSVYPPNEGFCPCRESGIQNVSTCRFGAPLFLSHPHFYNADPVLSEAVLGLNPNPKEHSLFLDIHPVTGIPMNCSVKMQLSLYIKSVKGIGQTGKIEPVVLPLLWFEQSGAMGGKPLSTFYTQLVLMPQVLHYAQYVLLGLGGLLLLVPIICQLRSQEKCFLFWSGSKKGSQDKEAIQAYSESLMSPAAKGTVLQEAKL
# Procedure details: enhancers of DiI-HDL lipid transfer via SR-BI – cell-based, ldlA[mSR-BI] CHO, DiI fluorescence, cherry-pick, dose response (AID 602191);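 further: cell fluorescence from internalized DiI-labeled HDL after washing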
# Measurement conditions: ldlA[mSR-BI] CHO cells, 3 h, at 35 µM (top of the series)
Kind request: treat -10% as inclusive, so activation (HDL uptake increase) at -10% or higher is True, anything lower is False.

In plain terms: is recorded activation (HDL uptake increase) at least -10% for CCCNC(=O)c1onc(CSc2ccc(F)cc2)c1C(=O)NCCOC ? False

Please tell me: is the compound O=C(COC(=O)c1ccc[nH]c1=O)Nc1cc(S(=O)(=O)N2CCCCCC2)ccc1Cl at or over -10% in terms of activation (HDL uptake increase)? True

Please indicate if the recorded activation (HDL uptake increase) for COc1ccc2c(CC(=O)NCC3CCC(C(=O)O)CC3)cc(=O)oc2c1 (stereo unspecified) meets or exceeds -10%. True

Please indicate if the recorded activation (HDL uptake increase) for CC(=O)c1cccc(S(=O)(=O)NCCCN2CCOCC2)c1 meets or exceeds -10%. True

Reported activation (HDL uptake increase) reaches at least -10% for Cc1c(CC(=O)O)c(=O)oc2cc(OCc3ccc(F)cc3Cl)ccc12 ? True

Please indicate if the recorded activation (HDL uptake increase) for CCCCC/C=C\C[C@H](O)/C=C/c1cccc(C[C@H](O)CCCCO)n1 meets or exceeds -10%. False

Identify whether the reported activation (HDL uptake increase) of the following compound is -10% or greater: NNC(=O)Cn1nc(Cc2ccccc2)n(N)c1=O True

# bool: activation (HDL uptake increase) of NCCCC[C@H]1CNC(=O)C(=O)N1CCc1cc(C(F)(F)F)cc(C(F)(F)F)c1 >= -10% True

Is activation (HDL uptake increase) for CC(=O)Oc1ccc2oc(=O)c3c(c2c1)CCCN3C(=O)CN1CCN(c2ncccn2)CC1 at or above -10%? False

Form field: activation (HDL uptake increase) at least -10%? Entry: Cc1ccc(C2/C(=C(\O)c3ccc4c(c3)OCCO4)C(=O)C(=O)N2Cc2cccnc2)cc1 (stereo unspecified) True

Could you please find out whether O=C(OCCc1cc2ccccc2c(=O)o1)c1ccc(F)cc1 has activation (HDL uptake increase) that meets -10% or exceeds it? False

Is the recorded value of activation (HDL uptake increase) equal to or greater than -10% for this compound? O=C(NC(=S)N(Cc1ccccc1)Cc1ccccc1)c1ccccc1F False

Form field: activation (HDL uptake increase) at least -10%? Entry: O=C(CCc1nc2ccccc2c(=O)[nH]1)N1CCN(c2ccccc2Cl)CC1 True

Evaluate O=C(COc1ccc(C(=O)c2ccccc2)cc1)NC1CCCCC1 : activation (HDL uptake increase) at minimum -10%? True

Hello, I need to know if COc1ccc(C(=O)NCc2nnc(SCC(=O)NCc3ccc(F)cc3)o2)cc1 has measured activation (HDL uptake increase) not below -10%. Thanks! False

Can Cc1ccc(C(=O)NCCCN2CCOCC2)cc1S(=O)(=O)N1CCCCC1 be said to have activation (HDL uptake increase) at or above -10%? True

Item COc1ccc(C(C(=O)NC2CCCCC2)N(C(=O)CCl)c2ccc(C)cc2)cc1 (stereo unspecified) with activation (HDL uptake increase) of -10% or above? True

Is it the case that Cn1nnnc1SCCNC(=O)C1CCC(=O)N(Cc2ccccc2F)C1 (stereo unspecified) has activation (HDL uptake increase) reaching or exceeding -10%? False

// inclusive: activation (HDL uptake increase) at least -10%? input: COc1ccc(OC)c(S(=O)(=O)N2CCN(C(=O)CCc3ccccc3)CC2)c1 True

Is activation (HDL uptake increase) for C[C@]12C[C@H](O)[C@H]3[C@@H](CCC4=CC(=O)CC[C@@]43C)[C@@H]1CC[C@@H]2C(=O)CO at or above -10%? True

# check: activation (HDL uptake increase) of O=C(NCc1ccccn1)c1ccc(S(=O)(=O)Nc2ccccc2F)cc1 is greater than or equal to -10% True

Please indicate if the recorded activation (HDL uptake increase) for Cc1ccc(C(c2nnnn2C2CCCCC2)N2CCN3CCCC3C2)cc1 (stereo unspecified) meets or exceeds -10%. True

Reported activation (HDL uptake increase) at or above -10%? COc1ccc(C(CNS(=O)(=O)c2ccc(NC(C)=O)c(OC)c2)N2CCCCC2)cc1 (stereo unspecified) True

Could you verify whether the entry O=C(Nc1ccc(S(=O)(=O)Nc2ccccc2F)cc1)N1CCCCC1 shows activation (HDL uptake increase) of no less than -10%? False

API: above_or_equal(metric=activation (HDL uptake increase), cutoff=-10%) for item CCCCC(=O)OCC(=O)C1(O)Cc2c(O)c3c(c(O)c2C(OC2CC(NC(=O)C(F)(F)F)C(O)C(C)O2)C1)C(=O)c1c(OC)cccc1C3=O (stereo unspecified) True

Decide: is the reported value of activation (HDL uptake increase) for COc1ccccc1OCC(=O)OCc1cc(-c2ccco2)on1 equal to or greater than -10%? True

Does activation (HDL uptake increase) meet or surpass -10% for O=C1C(=O)N(CNc2cccnc2)c2ccccc21 ? True

Does the reported activation (HDL uptake increase) for O=C(COc1ccc([N+](=O)[O-])cc1)NCc1cccnc1 fall at or above the -10% mark? True

Hi team, for Cc1ccc(S(=O)(=O)CCC(=O)OCC(=O)Nc2cc(S(=O)(=O)N3CCOCC3)ccc2Cl)cc1 , is the recorded activation (HDL uptake increase) at or above -10%? True

Given the entry N#C/C(=C/c1cn(-c2ccccc2)nc1-c1cccc(OCc2ccccc2)c1)C(=O)NCCCn1ccnc1 , answer whether its activation (HDL uptake increase) meets or surpasses -10%. True

Could you tell me if the measured activation (HDL uptake increase) of O=C(C1=C[C@@H](c2ccc(Br)cc2)C[C@@H](OCc2ccc(CO)cc2)O1)N1CCN(Cc2ccccc2)CC1 reaches -10% or more? True

Please tell me: is the compound Cc1nn(-c2ccccc2)nc1CNC(=O)C(C)Cc1ccccc1 (stereo unspecified) at or over -10% in terms of activation (HDL uptake increase)? False

Could you please find out whether CCC1C(=O)NCCN1C(=O)c1ccc(OC)c(OC2CCN(C(C)=O)CC2)c1 (stereo unspecified) has activation (HDL uptake increase) that meets -10% or exceeds it? True

Evaluate CCOC(=O)N1CCC(NC(=S)Nc2ccc3nc(N4CCN(C)CC4)cc(C)c3c2)CC1 : activation (HDL uptake increase) at minimum -10%? False

Assess whether reported activation (HDL uptake increase) for O=C(NNC(=S)Nc1cccc2ccccc12)c1cccc(Br)c1 sits at -10% or higher. False

Identify whether the reported activation (HDL uptake increase) of the following compound is -10% or greater: O=C(OCc1ccccc1)c1cccc(-c2nnc(-c3ccccc3)o2)c1 False

Can CCC(C)[C@@H](C(=O)NCC1CCC(C(=O)O)CC1)n1nnc2ccccc2c1=O (stereo partly specified) be said to have activation (HDL uptake increase) at or above -10%? True

Decide: is the reported value of activation (HDL uptake increase) for O=C(CN1CCN(S(=O)(=O)c2ccc(F)cc2)CC1)Nc1ccc(F)cc1F equal to or greater than -10%? True

Would you say Nc1nnc(SCC(=O)NN2C(=O)NC3(CCCCC3)C2=O)s1 shows activation (HDL uptake increase) at minimum -10%? True

Reported activation (HDL uptake increase) reaches at least -10% for COc1ccc2oc(C(=O)OCC(=O)Nc3ccc(C(=O)N(C)C)cc3)c(C)c2c1 ? False

Does CCN1CCN(c2ccc(S(=O)(=O)N3CCCCC3)cc2NC(=O)c2cccc(C(F)(F)F)c2)CC1 have a reported activation (HDL uptake increase) of at least -10%? True
